Can you tell me IC50 for the items I'm about to list?
- target-system: IP receptor (Homo sapiens)
- Construct: one million cells in 160 μl aliquot of cell suspension were put in a well of 96 well plate
- Sequence (P43119 whole entry): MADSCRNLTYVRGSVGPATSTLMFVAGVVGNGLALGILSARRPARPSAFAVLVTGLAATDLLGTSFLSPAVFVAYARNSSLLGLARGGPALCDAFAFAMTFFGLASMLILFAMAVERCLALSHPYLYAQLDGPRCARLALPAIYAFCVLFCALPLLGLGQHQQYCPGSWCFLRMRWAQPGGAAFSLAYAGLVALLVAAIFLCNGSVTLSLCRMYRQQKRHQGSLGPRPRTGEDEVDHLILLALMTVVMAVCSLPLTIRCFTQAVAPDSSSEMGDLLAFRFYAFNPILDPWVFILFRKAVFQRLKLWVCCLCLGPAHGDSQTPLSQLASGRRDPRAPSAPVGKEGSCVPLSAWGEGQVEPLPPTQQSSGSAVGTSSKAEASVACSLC
- method-description: IP receptor binding/cAMP in HEL cells ([3H]-iloprost binding, Assay 1; iloprost-induced cAMP production, Assay 2)
- applied-conditions: compounds of about 40 to 90% purity, read-out: In vitro activity grade (IC50 class)

Exercise: Report measured IC50; entry is O=C(O)C(Cc1ccccc1)Nc1cc(-c2ccc(-c3ccc4c(c3)OCO4)cc2)ncn1 (stereo not shown)
Solution: < 100 nM

Exercise: Report measured IC50; entry is O=Cc1c(N[C@@H](Cc2ccccc2)C(=O)O)ncnc1-c1ccc(OCc2ccccc2)cc1
Solution: 100 to 1000 nM

Exercise: Report measured IC50; entry is CC(C)C(Nc1cc(-c2ccc(OCc3ccccc3)cc2)ncn1)C(=O)O (stereo not shown)
Solution: 100 to 1000 nM

Exercise: Report measured IC50; entry is COc1cccc(COc2ccc(-c3cc(NC(Cc4ccccn4)C(=O)O)ncn3)cc2)c1 (stereo not shown)
Solution: < 100 nM

----------
Can you tell me melting point for the items I'm about to list?

Exercise: Report measured melting point; entry is O=C(c1ccc(F)cc1)c1ccc(-c2cc(NC(Cc3ccccc3)C(=O)O)ncn2)cc1 (centres unmarked)
Solution: 115 to 117 °C

Exercise: Report measured melting point; entry is C=CCC(Nc1cc(-c2ccc(OCc3ccccc3)cc2)ncn1)C(=O)O (centres unmarked)
Solution: 135 to 137 °C

Exercise: Report measured melting point; entry is O=C(O)C(Cc1ccccc1)Nc1cc(-c2ccc(OCc3ccccc3)cc2F)ncn1 (centres unmarked)
Solution: 133 to 136 °C

Exercise: Report measured melting point; entry is O=C(O)C(Cc1ccccn1)Nc1cc(-c2ccc(OCc3ccccc3)c(F)c2)ncn1 (centres unmarked)
Solution: 107 °C

Exercise: Report measured melting point; entry is COCC(Nc1cc(-c2ccc(OCc3ccccc3)cc2)ncn1)C(=O)O (centres unmarked)
Solution: 115 to 120 °C

Exercise: Report measured melting point; entry is CC(C)Oc1ccc(-c2cc(NC(Cc3ccccc3)C(=O)O)ncn2)cc1 (centres unmarked)
Solution: 201 to 204 °C (dec.)

Exercise: Report measured melting point; entry is O=C(O)C(Cc1ccccc1)Nc1cc(-c2ccc(OCc3ccccc3)cc2)ccn1 (centres unmarked)
Solution: 194 to 196 °C

Exercise: Report measured melting point; entry is O=C(O)[C@H](Cc1ccccc1)Nc1cc(-c2ccc(OCC3CC3)cc2)ncn1 [Example 2-1]
Solution: 216 to 218 °C

Exercise: Report measured melting point; entry is O=C(O)C(Cc1ccccc1)Nc1cc(-c2ccc(OCc3ccccc3F)cc2)ncn1 (centres unmarked)
Solution: 220 to 223 °C (dec.)

Exercise: Report measured melting point; entry is CCCCC(Nc1cc(-c2ccc(OCc3cc(OC)cc(OC)c3)cc2)ncn1)C(=O)O (centres unmarked)
Solution: 88 to 93 °C

Exercise: Report measured melting point; entry is O=C(O)C(Cc1ccccc1)Nc1cc(-c2ccc(CNCc3ccccc3)cc2)ncn1 (centres unmarked)
Solution: 173 to 176 °C (dec.)

Exercise: Report measured melting point; entry is CC(C)CC(Nc1cc(-c2ccc(OCc3ccccc3)cc2)ncn1)C(=O)O (centres unmarked)
Solution: 244 to 246 °C

Exercise: Report measured melting point; entry is O=C(O)C(Cc1ccccc1)Nc1cncc(-c2ccc(OCc3ccccc3)cc2)n1 (centres unmarked)
Solution: 89 to 92 °C

Exercise: Report measured melting point; entry is O=C(O)C(Cc1ccc(O)cc1)Nc1cc(-c2ccc(OCc3ccccc3)cc2)ncn1 (centres unmarked)
Solution: 233 to 236 °C

Exercise: Report measured melting point; entry is O=C(O)C(Cc1ccccc1)Nc1cc(-c2ccc(OCC3CCC3)cc2)ncn1 (centres unmarked)
Solution: 210 to 213 °C (dec.)

Exercise: Report measured melting point; entry is CN(c1cc(-c2ccc(OCc3ccccc3)cc2)ncn1)C(Cc1ccccc1)C(=O)O (centres unmarked)
Solution: 112 to 115 °C

Exercise: Report measured melting point; entry is CCCCC(Nc1cc(-c2ccc(OCC3CC3)cc2)ncn1)C(=O)O (centres unmarked)
Solution: 100 to 104 °C

Source: patent US20060089371A1
